Where do these numbers come from? They come from the RNAGym collection of RNA variant scans (doi:10.7554/elife.80360).

B1: Hairpin Ribozyme (parent)
chain: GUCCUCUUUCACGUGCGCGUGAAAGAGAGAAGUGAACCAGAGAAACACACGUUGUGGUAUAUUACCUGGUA

# Variants of: B1
# procedure text: self-cleavage, relative activity (ratio to wild type); higher = more cleavage; co-transcriptional
Documented self-cleavage across a set of variants
measured attribute: self-cleavage

INSERT INTO measurements (variant_id, reading) VALUES
  ('A24C A39U', 0.573),
  ('G32U U33A', 0.148),
  ('C10A A41G', 0.694),
  ('A41G U52C', 0.827),
  ('G17U U52C', 0.816),
  ('G32C U55A', 0.176),
  ('G34U G68U', 0.95),
  ('G21C G29U', 0.316),
  ('A24U A28U', 0.521),
  ('G25A U33G', 0.136),
  ('A11C A35C', 0.764);
